tested on: SR; test: cells; type: functional, cell-based; settings: Homo sapiens;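 note: growth inhibition of human SR cells, determined with a cell viability assay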
Description: SANGER: Inhibition of human SR cell growth in a cell viability assay.
pIC50: −log10 of the molar value.

>  <MOLECULE>
CCn1c(-c2nonc2N)nc2cnc(Oc3cccc(NC(=O)c4ccc(OCCN5CCOCC5)cc4)c3)cc21 [GSK-269962A]

>  <pIC50>
> 8.01

$$$$
>  <MOLECULE>
N#C/C(=C1/Nc2ccccc2S1)c1ccnc(NCCc2cccnc2)n1

>  <pIC50>
5.73

$$$$
>  <MOLECULE>
Cc1[nH]c(/C=C2\C(=O)Nc3ccc(S(=O)(=O)Cc4c(Cl)cccc4Cl)cc32)c(C)c1C(=O)N1CCC[C@@H]1CN1CCCC1

>  <pIC50>
< 5.70

$$$$
>  <MOLECULE>
Cc1nc(Nc2ncc(C(=O)Nc3c(C)cccc3Cl)s2)cc(N2CCN(CCO)CC2)n1

>  <pIC50>
< 5.89

$$$$
